Just for reference, patent US12590062B2 is where these values come from.

Study System: PD-L1 (Homo sapiens, UniProt Q9NZQ7)
Construct: determine if they can specifically dimerize the extracellular domains of PD-L1
Sequence (Q9NZQ7 19-238 limits assumed): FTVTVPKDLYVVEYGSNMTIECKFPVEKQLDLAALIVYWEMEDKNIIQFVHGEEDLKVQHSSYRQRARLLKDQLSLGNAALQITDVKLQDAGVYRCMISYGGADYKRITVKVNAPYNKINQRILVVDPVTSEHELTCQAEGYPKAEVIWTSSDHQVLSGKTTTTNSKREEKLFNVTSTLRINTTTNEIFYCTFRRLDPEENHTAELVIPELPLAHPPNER
Sequence (Q9NZQ7 19-238 limits assumed): as above
Protocol Description: PD-L1/PD-L1 dimerization biochemical protein-protein interaction assay (ALPHA)
Assay type: binding
Experimental Conditions: compound-induced PD-L1 dimerization, head prints '1 nM' (0.5 nM His-tagged PD-L1 and 0.5 nM FLAG-tagged PD-L1), read-out: AC50 PDL1 Dimer Alpha 1 nM
Use AC50 to assign classes; range list: A = under 40 nM, B = from 40 nM up to 100 nM, C = 100 nM and over

[
  {
    "Molecule": "COc1nc(-c2cccc(-c3cccc(COc4nc(OCc5cncc(C#N)c5)c(CN[C@@](C)(CO)C(=O)O)cc4Br)c3Cl)c2Cl)ccc1C1=NCCN1 [Example 559]",
    "Classification": "A"
  },
  {
    "Molecule": "C[C@@](CO)(NCc1cc(Cl)c(O[C@H]2CCc3c(-c4cccc5c4CC[C@@H]5Oc4nc(OCc5cncc(C#N)c5)c(CNCCO)cc4Cl)cccc32)nc1OCc1cncc(C#N)c1)C(=O)O [Example 295]",
    "Classification": "B"
  },
  {
    "Molecule": "Cc1c(COc2cc(OCc3cncc(C#N)c3)c(CNC[C@@H]3CCC(=O)N3)cc2Cl)cccc1-c1cccc(-c2ccc(CNC[C@@H]3CCC(=O)N3)cc2)c1C [Example 497]",
    "Classification": "C"
  },
  {
    "Molecule": "COc1nc(OCc2cccc(-c3cccc(COc4nc(OC)c(CNC[C@H](O)CC(=O)O)cc4Br)c3Cl)c2Cl)ccc1CNC[C@H](O)CC(=O)O [Example 192]",
    "Classification": "C"
  },
  {
    "Molecule": "C[C@@](CO)(NCc1cc(Cl)c(O[C@H]2CCc3c(-c4cccc(-c5ccc(OCCNCCO)cc5)c4Cl)cccc32)nc1OCc1cncc(S(C)(=O)=O)c1)C(=O)O [Example 660]",
    "Classification": "A"
  },
  {
    "Molecule": "Cc1c(COc2cc(OCc3cncc(C#N)c3)c(CNCCO)cc2Cl)cccc1-c1cccc(COc2cc(OCc3cncc(C#N)c3)c(CNCCO)cc2Cl)c1Br [Example 480]",
    "Classification": "C"
  },
  {
    "Molecule": "COc1cc(-c2cccc(-c3cccc(-c4ccc(CNC[C@@H]5CCC(=O)N5)c(OC)c4)c3Cl)c2Cl)ccc1CNC[C@@H]1CCC(=O)N1 [Example 513]",
    "Classification": "B"
  },
  {
    "Molecule": "CC(C)(NCc1cc(Cl)c(OCc2cccc(-c3cccc(-c4ccc(OCCNCCO)cc4)c3Cl)c2Cl)nc1OCc1cc(C#N)cc(C#N)c1)C(=O)O [Example 578]",
    "Classification": "A"
  },
  {
    "Molecule": "COc1nc(-c2cccc(-c3cccc(-c4ccc5c(c4)[C@H](O)C[C@@H]5N)c3Cl)c2Cl)ccc1CNC[C@@H]1CCC(=O)N1 [Example 611]",
    "Classification": "C"
  },
  {
    "Molecule": "COc1nc(O[C@H]2CCc3c(-c4cccc(-c5cc(C)c(CNC[C@@H]6CCC(=O)N6)c(OC)n5)c4Cl)cccc32)c(Cl)cc1CNC[C@@H]1CCC(=O)N1 [Example 591]",
    "Classification": "A"
  },
  {
    "Molecule": "COc1nc(O[C@H]2CCc3c(-c4cccc(-c5ccc(CNC[C@@H]6CCC(=O)N6)c(OCC#N)n5)c4Cl)cccc32)c(Cl)cc1CNC[C@@H]1CCC(=O)N1 [Example 656]",
    "Classification": "A"
  },
  {
    "Molecule": "C[C@@](CO)(NCc1ccc(O[C@H]2CCc3c(-c4cccc(OCCCN5CC[C@@H](O)C5)c4Cl)cccc32)nc1OCc1cncc(C#N)c1)C(=O)O [Example 673]",
    "Classification": "C"
  },
  {
    "Molecule": "Cc1c(COc2cc(OCc3cncc(C#N)c3)c(CNC[C@@H](O)CC(=O)O)cc2Cl)cccc1-c1cccc(OCc2ccc(CNC[C@@H](O)CC(=O)O)cc2)c1C [Example 279]",
    "Classification": "C"
  },
  {
    "Molecule": "Cc1c(COc2cc(OCc3cncc(C#N)c3)c(CN[C@@](C)(CO)C(=O)O)cc2Cl)cccc1-c1cccc(-c2ccc(OCCN3CC4(CCC(=O)N4)C3)cc2)c1C [Example 520]",
    "Classification": "B"
  },
  {
    "Molecule": "COc1nc(-c2cccc(-c3cccc4c3CC[C@@H]4Oc3ccc(CN[C@@](C)(CO)C(=O)O)c(OCc4cncc(C#N)c4)n3)c2C)ccc1C1=NCCN1 [Example 750]",
    "Classification": "B"
  },
  {
    "Molecule": "Cc1c(COc2cc(OCc3cncc(C#N)c3)c(CN[C@@](C)(CO)C(=O)O)cc2Cl)cccc1-c1cccc(-c2ccc(CNCCS(C)(=O)=O)cc2)c1C [Example 571]",
    "Classification": "C"
  },
  {
    "Molecule": "COc1nc(-c2cccc(-c3cccc4c3CC[C@@H]4Oc3nc(OCc4cncc(C#N)c4)c(CN[C@@](C)(CO)C(=O)O)cc3Cl)c2C)ccc1C1=NCCN1 [Example 749]",
    "Classification": "A"
  },
  {
    "Molecule": "COc1nc(OCc2cccc(-c3cccc(COc4nc(OC)c(CNCC(=O)O)cc4Cl)c3C)c2C)c(Cl)cc1CNCC(=O)O [Example 178]",
    "Classification": "C"
  },
  {
    "Molecule": "COc1nc(-c2cccc(-c3cccc4c3CC[C@@H]4Oc3nc(OCc4cncc(C#N)c4)c(CN[C@@](C)(CO)C(=O)O)cc3Cl)c2Br)ccc1CNC[C@@H]1CCC(=O)N1 [Example 700]",
    "Classification": "A"
  },
  {
    "Molecule": "COc1nc(O[C@H]2CCc3c(-c4cccc(-c5ccc(CNCCO)cc5)c4Cl)cccc32)c(Cl)cc1CNCCO [Example 772]",
    "Classification": "A"
  },
  {
    "Molecule": "COc1nc(-c2cccc(-c3cccc(N4Cc5cc(CN6CC7(CCC(=O)N7)C6)ccc5C4=O)c3Cl)c2Cl)ccc1CN1CC2(CCC(=O)N2)C1 [Example 631]",
    "Classification": "C"
  }
]
